The reported numbers originate from patent US20230250170A1.

# assayedTarget: T1, monkey NPR1 on HEK293/mfNPR1 cells in the presence of 100 nM hBNP (monkey (Macaca fascicularis); human)
# T1 construct: also called HEK293/mfNPR1 +100 nM hBNP
# T1 sequence (P16860 103-134): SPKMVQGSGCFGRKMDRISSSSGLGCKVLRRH
# measurementNotes: ECL cell-binding immunoassay (MSD), HEK293/mfNPR1, +100 nM hBNP
Item-by-item account of EC50

binder	EC50 (nM)
H4H22034 (antibody, human IgG4 S228P, kappa, V domains shown, also called H4H22034N; mAb22034) VH: EVQLLESGGDLVQPGGSLRLSCAASGFTFSDYAMIWVRQTPGKGLEWVSGISGGGGSTDYADSVKGRFTTSRDNVKNAMYLQMNSLRTEDTAVYYCAREDQLPSYHNYYGMDVWGQGTTVTVSS VL: DIQMTQSPSSVSASVGDRVTITCRASQGINNYLAWFQQKPGKAPKSLIYGASSLQSGVPSKFSGSRSGIDFTLTISSLQPEDFATYYCQQYNSYPYTFGQGTKLEIKR	0.42
REGN7544 (antibody, human IgG4 S228P, kappa, V domains shown, also called mAb38072) VH: EVQLVESGGGLVQPGGSLRLSCAASGFSFVSYVMGWVRQAPGKGLEWVSSISGSLTNTYYADPVKGRFTISRDNSKNTLYLQMNSLRAEDTAAYYCVTYDILTGHLFDYWGQGTLVTVSS VL: AIQMTQSPSSLSASVGDRVTITCRSSQGIRNDFGWYQQKPGKAPKLLIYAASRLQSGVPSRFSGSGSGTDFTLTINNLQPEDFATYYCLQDYTYPFTFGPGTKVDIKR	1.7
REGN7548 (antibody, human IgG4 S228P, kappa, V domains shown, also called mAb38090) VH: QVQLVQSGAEVKKPGASVKVSCKASGYTFTSYYIHWVRQAPGQGLEWMGIISPSDGYTSYAQNFQGRVTMTRDTSTNTVYMDLSSLRSEDTAMFYCARNDPLTTVALDYWGQGTLVTVSS VL: AIQMTQSPSSLSASVGDRVTITCRASQGIRYDLGWFQQKPGKAPKLLIHAASSLQSGVPSRFSGSGSGTDFTLTISSLQPEDFATYYCLQDYNYPFTFGQGTKLEIKR	0.56
REGN7541 (antibody, human IgG4 S228P, kappa, V domains shown, also called mAb38067) VH: EVQLVESGGGLVQPGGSLRLSCAASGFTFSSYAMSWVRQAPGKGLEWVSTISGSGTNTYYADSVKGRFTISNDNSKNTLYLQMNSLRAEDTAVYYCANYDILTGHSFEYWGQGTLVTVSS VL: AIQMTQSPSSLSASVGDRVTITCRASQGIRNDLGWYQQKPGKAPELLIYAASRLPSGVPLRFSGSGSGTDFTLTISSLQPEDVATYYCLQDYNYPFTFGPGTKVDIKR	0.92
